ASSAY METHOD TEXT: self-splicing fitness, log relative to wild type (ln ratio); higher = more splicing; Tetrahymena group I intron in knt gene, E. coli kanamycin selection, DiMSum; sequences stand for … in CUCUCU…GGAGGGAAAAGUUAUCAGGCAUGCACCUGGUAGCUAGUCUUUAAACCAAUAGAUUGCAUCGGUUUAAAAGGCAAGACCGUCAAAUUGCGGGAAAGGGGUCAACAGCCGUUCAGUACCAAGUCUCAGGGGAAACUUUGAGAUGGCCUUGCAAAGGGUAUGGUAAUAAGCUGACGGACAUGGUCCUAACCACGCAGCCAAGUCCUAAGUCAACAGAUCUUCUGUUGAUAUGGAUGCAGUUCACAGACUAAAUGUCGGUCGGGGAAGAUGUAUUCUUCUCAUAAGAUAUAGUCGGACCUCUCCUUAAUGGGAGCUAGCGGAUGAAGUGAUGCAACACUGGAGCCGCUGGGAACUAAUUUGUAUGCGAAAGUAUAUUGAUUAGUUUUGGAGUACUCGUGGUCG;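 further: selection with 25 µg/mL kanamycin versus none on LB agar overnight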
ASSAY CONTEXT: 37 °C
Reported self-splicing fitness (ln) by item:
Please reply with the value in numeric form only.

AUACAGCAAUAUUACGCAAU : -1.02
GUUGAGCAAUAUUACGCAAA : -0.984
CUGUAGCAAUAUUACGUGGG : -2.05

Note: attention shifts to another entry.
Qu. Field request: self-splicing fitness (ln) | item: "UGAAAGCAAUAUUACGUUUC"
Ans. -2.03
